Let's look at some molecules and their measured growth inhibition.
Measurement notes: NCI Yeast Anticancer Drug Screen. Data for the mlh1 rad18 strain (AID 175)
Measurement parameters: S. cerevisiae mlh1 rad18 strain growth inhibition; at 50.0 µM; stronger effect = higher value
About 79,000 compounds went through this panel and 15% of them were active in at least one assay; those are over-represented in the sample as a whole.
Quick note: give the figure in %, leave out the unit.

Worked cases, growth inhibition given:
C=C(Br)c1ccc2c(c1)OCO2: -8.55
Cc1c(Cl)cccc1NC(=O)Nc1ccc(S(N)(=O)=O)cc1: 19.1
COC(=O)C1C2C=CC(C2)N1[C@@H](C)c1ccccc1 (stereo not given in full): -21.4
CCC(=O)C(=O)C1CCCCC1=O (stereo not given): -0.05

In one line, give reported growth inhibition of the entry Cc1c(C#N)c2n(c1C)CCN2 .
-4.45

In one line, give reported growth inhibition of the entry CCN(CC)CCC(=O)N1CCc2c([nH]c3ccccc23)C1c1cccnc1 (stereo not given) .
-28.2

In one line, give reported growth inhibition of the entry ONC1=Nc2ccccc2C(=S)N2CSCC12 (stereo not given) .
15.9

In one line, give reported growth inhibition of the entry N=C1N=Nc2nc(C(C(=O)c3cccc4ccccc34)c3nc4n(c3O)C(=N)N=N4)c(O)n21 (stereo not given) .
26.2

In one line, give reported growth inhibition of the entry O=C(Nc1ccccc1)c1nn(-c2cc(S(=O)(=O)O)c([N+](=O)[O-])cc2Cl)[n+](-c2cc(S(=O)(=O)[O-])c([N+](=O)[O-])cc2Cl)n1 .
2.3

In one line, give reported growth inhibition of the entry COC(=O)C12OCC34C(CC5C(C)=C(O)C(=O)CC5(C)C3C(O)C1O)OC(=O)C(OC(C)=O)C24 (stereo not given) .
84.2

---

Measurement notes: NCI Yeast Anticancer Drug Screen. Data for the bub3 strain (AID 167)
Measurement parameters: S. cerevisiae bub3 mutant strain, at 50.0 µM
The panel holds about 79,000 compounds, 15% with a hit somewhere; the sample as a whole holds those more often. Active and inactive are the calls of the source. No stated cut-off is given here; in the data, active means growth inhibition above about 70%; inactive means the rest.
Response enum: class 1 for active, class 0 for inactive

Use the examples below as a reference point.
CC(N)c1ccc2ccccc2c1O (centres undefined): class 0
O=C(O)C(=O)c1ccc(O)cc1O: class 0

Lab log entry: COC(=O)CC1(C(=O)OC)Oc2ccc(Br)cc2C(=O)N1c1ccc(Br)cc1Cl (centres undefined) — outcome as called in the assay?
class 0

Lab log entry: CCC/C=N\NS(=O)(=O)c1ccc(NC(C)=O)cc1 — outcome as called in the assay?
class 0

Lab log entry: O=C(CCl)Oc1cccc([N+](=O)[O-])c1 — outcome as called in the assay?
class 0

Lab log entry: O=C(O)c1cccc(-n2cnc3c(=O)[nH]cnc32)c1 — outcome as called in the assay?
class 0

---

Measurement notes: NCI Yeast Anticancer Drug Screen. Data for the mec2-1 strain (AID 157)
Measurement parameters: S. cerevisiae mec2-1 strain, at 50.0 µM, stronger effect = higher value
Compounds without any hit were thinned out: in the full panel of roughly 79,000, 15% have a hit.
Measured property: growth inhibition (%)
Quick note: give the figure in %, leave out the unit.

Worked cases, growth inhibition given:
CCCCOC(=O)c1ccc(O)cc1.[Zn+2]: -11.6
O=S(=O)(O)c1cccc2ccc(O)cc12: -4.1
CCCCN(CCCC)CC(O)c1cccc2c1cc(Cl)c1ccccc12 (configuration not stated): 99.6

In one line, give reported growth inhibition of the entry CC=C(c1ccccc1)c1ccccc1 .
-25.2

In one line, give reported growth inhibition of the entry CCOC(=O)C(C)(C)Oc1ccc2c(=O)cc(-c3ccc(Cl)cc3)oc2c1 .
-20.1

In one line, give reported growth inhibition of the entry CN(C)CCNC1=CC(=O)c2nc3ccccc3c3ccnc1c23 .
14.2

In one line, give reported growth inhibition of the entry Cc1cc(=O)c2cc3ccc4cccc5ccc(c2[nH]1)c3c45 .
-8.35

---

Measurement notes: NCI Yeast Anticancer Drug Screen. Data for the sgs1 mgt1 strain (AID 161);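 note: 0% = growth of cultures given vehicle only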
Measurement parameters: S. cerevisiae sgs1 mgt1 strain, at 50.0 µM, stronger effect = higher value
Compounds without any hit were thinned out: in the full panel of roughly 79,000, 15% have a hit.
Let's look at some compounds and their measured growth inhibition.
Quick note: give the figure in %, leave out the unit.

CC(C)[Si](OC1=C(c2ccccc2)C(NC(=O)/C=C/c2ccc([N+](=O)[O-])cc2)CCC1)(C(C)C)C(C)C (stereo not drawn): -0.2
CCOC(=O)C1C(C)=CC(=O)CC1CC (stereo not drawn): 14.8
O=C(Nc1ncnc2c1ncn2C1OC(COC(=O)c2ccccc2)C(OC(=O)c2ccccc2)C1OC(=O)c1ccccc1)c1ccccc1 (stereo not drawn): -1.25
CN(C)C1(C(=O)O)c2ccccc2-c2ccccc21: 21.8
C/C=C(\C(=C\C)c1ccc(OC(=O)c2ccccc2)c(C2CCCCC2)c1)c1ccc(O)c(C2CCCCC2)c1: 44.9

Here's the next entry for you.
In one line, give reported growth inhibition of the entry C[N+]1(Cc2ccccc2)CCC(=O)CC1 .
-7.1

---

Measurement notes: NCI Yeast Anticancer Drug Screen. Data for the cln2 rad14 strain (AID 165);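 note: 0% = growth equal to vehicle treated cultures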
Measurement parameters: S. cerevisiae cln2 rad14 strain, at 50.0 µM, stronger effect = higher value
This is part of a sample that, as a whole, favours compounds with a hit. Of some 79,000 tested, about 15% had one in any assay.
Measured property: growth inhibition (%)
Quick note: give the figure in %, leave out the unit.

Worked cases, growth inhibition given:
CC1(CO)CSC(Nc2ccc(F)cc2)=N1 (stereo not given): 14.8
O=C1c2ccccc2C(=O)N1C/C=C/CN1C(=O)c2ccccc2C1=O: -9.4
OCC(O)c1ccc(Cl)cc1 (stereo not given): -14
N/C(=N\Cl)C(Cl)(Cl)Cl: -26.6
O=C(NCCCCCCNC(=O)OCCSCCn1cc(C(=O)NC(=O)OCc2ccccc2)c(=O)[nH]c1=O)OCCSCCn1cc(C(=O)NC(=O)OCc2ccccc2)c(=O)[nH]c1=O: 2.55
Cc1c(C#N)c(N)[nH]c(=S)c1C#N: 1.25
CCn1c2ccccc2n2c(=O)c3c(c(C#N)c12)CCCC3: -8.6
CC(=O)OCC1OC(N2C(=O)/C(=C/c3ccc4c(c3)OCO4)SC2=S)C(OC(C)=O)C(OC(C)=O)C1OC(C)=O (stereo not given): 1.15
Oc1ccc2ccccc2c1C=NCc1c(O)ccc2ccccc12: -39.2

Here's the next entry for you.
In one line, give reported growth inhibition of the entry COC(=O)C(C(C)C(C)[N+](=O)[O-])=P(c1ccccc1)(c1ccccc1)c1ccccc1 (stereo not given) .
11.2

---

Measurement notes: NCI Yeast Anticancer Drug Screen. Data for the cln2 rad14 strain (AID 165);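 note: 0% = growth equal to vehicle treated cultures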
Measurement parameters: S. cerevisiae cln2 rad14 strain, at 50.0 µM, stronger effect = higher value
The panel holds about 79,000 compounds, 15% with a hit somewhere; the sample as a whole holds those more often.
Classification by growth inhibition | ranges: bottom bin = under -20%, middle bin = from -20% up to 10%, top bin = 10% and over

Cc1ccc(NC(=O)CC(=O)CC(C)C)cc1C: middle bin

Place this compound in its band: CN1CCCC1c1cccnc1.O=C(O)c1ccccc1O.O=C([O-])c1ccccc1[OH2+].O=C([O-])c1ccccc1[OH2+].O=C([O-])c1ccccc1[OH2+].[Mn+2] (configuration not stated)
bottom bin

Place this compound in its band: Cn1cnc(N)c1S(N)(=O)=O
middle bin

Place this compound in its band: NC(=S)N/C=C\c1nc2ccccc2[nH]c1=O
bottom bin

Place this compound in its band: COS(=O)c1cc(Cl)cc(Cl)c1O (configuration not stated)
bottom bin

Place this compound in its band: O=c1c(N2CCOCC2)c(N2CCOCC2)c1=O
top bin

Place this compound in its band: CC(=O)NC(Cc1ccc(OC(C)=O)c(OC(C)=O)c1)C(C)=O (configuration not stated)
middle bin

Place this compound in its band: CC(O)CC(C)CO (configuration not stated)
bottom bin

Place this compound in its band: O=C(O)CCC(=O)c1ccc[nH]1
top bin

Place this compound in its band: CCCN(CCC)CC(O)c1cccc2c1cc(Cl)c1ccccc12 (configuration not stated)
top bin

Place this compound in its band: CCOc1ccccc1C(=O)O
top bin

Place this compound in its band: Cc1ccc(C(c2ccccc2)C(CC(=O)O)CC(=O)O)cc1 (configuration not stated)
middle bin

---

Measurement notes: NCI Yeast Anticancer Drug Screen. Data for the rad50 strain (AID 155);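 note: 0% = growth of vehicle-only cultures of the same strain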
Measurement parameters: S. cerevisiae rad50 strain growth inhibition; at 50.0 µM; stronger effect = higher value
Experimental: Growth inhibition of yeast strains with defined genetic alterations is measured as a screen for potential anti-cancer activity. Selected strains with alterations in DNA damage repair or cell cycle control were exposed to compounds and growth inhibition was measured relative to vehicle treated controls. The strain used in this assay is rad50
This is part of a sample that, as a whole, favours compounds with a hit. Of some 79,000 tested, about 15% had one in any assay.
Let's look at some molecules and their measured growth inhibition.
Quick note: give the figure in %, leave out the unit.

O=C(CCc1ccccc1C(=O)O)c1ccccc1O: 0.7

Here's the next entry for you.
In one line, give reported growth inhibition of the entry NC1=NC=N/C(=N\c2ccccn2)C1N (stereo not drawn) .
-13.3
